- Test method notes: Substrate specificity of WNanoKAZ mutants, crude enzyme solution (Example 11)
- Format: biochemical
- Test parameters: substrate 6h-CTZ, Int.
Experimental readout: Relative luminescence activity, 6h-CTZ, Int.
Would you mind answering with just the numeric figure?

Check out these entries, answers already filled in.
Molecule	Recorded measurement
WNanoKAZ-V90I: single amino acid-substituted WNanoKAZ mutant, valine 90 back to isoleucine; SEQ ID NO: 8 (protein) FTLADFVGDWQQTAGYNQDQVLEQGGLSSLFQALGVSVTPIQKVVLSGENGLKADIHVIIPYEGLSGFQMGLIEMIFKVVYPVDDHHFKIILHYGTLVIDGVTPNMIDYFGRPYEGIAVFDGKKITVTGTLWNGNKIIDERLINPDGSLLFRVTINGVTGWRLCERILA	5.6
WNanoKAZ-E115P: WNanoKAZ with substitution of proline for glutamic acid at position 115; SEQ ID NO: 10 (protein) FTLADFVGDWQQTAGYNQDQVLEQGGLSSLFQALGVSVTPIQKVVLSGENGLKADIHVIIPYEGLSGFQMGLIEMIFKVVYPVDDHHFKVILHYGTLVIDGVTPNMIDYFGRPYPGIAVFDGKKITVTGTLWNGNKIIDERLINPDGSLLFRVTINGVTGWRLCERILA	6.1
WNanoKAZ-K124Q: single amino acid-substituted WNanoKAZ mutant K124Q; SEQ ID NO: 12 (protein) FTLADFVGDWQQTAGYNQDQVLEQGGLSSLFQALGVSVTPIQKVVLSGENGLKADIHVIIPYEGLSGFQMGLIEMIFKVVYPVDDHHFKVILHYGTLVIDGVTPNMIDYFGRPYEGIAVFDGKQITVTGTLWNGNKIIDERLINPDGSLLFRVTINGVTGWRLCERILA	6.1
WNanoKAZ: chimeric protein: positions 1-82 of native KAZ and 83-169 of nanoKAZ; SEQ ID NO: 6; I90V, P115E, Q124K, Y138I, N166R (protein, chimeric protein: positions 1-82 of native KAZ and 83-169 of nanoKAZ; I90V, P115E, Q124K, Y138I, N166R) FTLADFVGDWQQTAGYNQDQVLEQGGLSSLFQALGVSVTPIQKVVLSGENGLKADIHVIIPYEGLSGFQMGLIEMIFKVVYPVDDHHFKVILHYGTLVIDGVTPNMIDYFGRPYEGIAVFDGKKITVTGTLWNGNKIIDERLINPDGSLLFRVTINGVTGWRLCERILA	7.5
WNanoKAZ-R166N: single amino acid-substituted WNanoKAZ mutant R166N; SEQ ID NO: 16 (protein) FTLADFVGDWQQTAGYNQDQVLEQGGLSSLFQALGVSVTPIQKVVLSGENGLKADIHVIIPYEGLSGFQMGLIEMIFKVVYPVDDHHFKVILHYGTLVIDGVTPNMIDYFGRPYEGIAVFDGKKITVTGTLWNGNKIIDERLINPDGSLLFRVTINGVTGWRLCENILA	6.1

Which value of Relative luminescence activity, 6h-CTZ, Int. has been reported for WNanoKAZ-I138Y: single amino acid-substituted WNanoKAZ mutant I138Y; SEQ ID NO: 14 (protein) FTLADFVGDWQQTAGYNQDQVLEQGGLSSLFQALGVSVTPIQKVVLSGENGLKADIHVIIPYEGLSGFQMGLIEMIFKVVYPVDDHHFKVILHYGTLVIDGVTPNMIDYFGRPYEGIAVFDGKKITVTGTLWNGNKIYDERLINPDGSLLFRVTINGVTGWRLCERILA in the records? 2.8

Record: KAZ: 19 kDa protein of native Oplophorus luciferase having luminescence activity; SEQ ID NO: 2 (protein, listed as Oplophorus gracilirostris) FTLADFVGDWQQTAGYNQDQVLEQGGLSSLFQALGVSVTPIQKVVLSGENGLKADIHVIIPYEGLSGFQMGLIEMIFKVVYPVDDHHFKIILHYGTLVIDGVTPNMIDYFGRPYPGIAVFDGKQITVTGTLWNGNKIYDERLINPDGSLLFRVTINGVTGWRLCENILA 0.1
